Target: T1, Human NKp46 His tag (Acro Biosystems, NC1-H52H4) (human, UniProt O76036 22-255)
T1 construct: bought; also called human NKp46-his tagged protein
T1 sequence (O76036 22-255 limits assumed): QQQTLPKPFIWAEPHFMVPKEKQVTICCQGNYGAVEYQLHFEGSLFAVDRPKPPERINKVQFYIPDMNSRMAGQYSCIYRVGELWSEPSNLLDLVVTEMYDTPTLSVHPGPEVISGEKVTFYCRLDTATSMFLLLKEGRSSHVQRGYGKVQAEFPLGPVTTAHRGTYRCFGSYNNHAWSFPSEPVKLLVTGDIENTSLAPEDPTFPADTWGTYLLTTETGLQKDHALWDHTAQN
Experiment: FP competition vs BCY15035
Numbered stars: 1 amine (or outer) side, 2 acyl side, 3 side chain; on linkers, the order of the positions; unused ones are H or OH. Bridge positions count the residues as written; N and C are the ends. Square brackets hold non-standard residues; d marks the D form. Ends that are not written are not given here. TATA = O=C(CC[*:1])N1CN(C(=O)CC[*:2])CN(C(=O)CC[*:3])C1; Phe(4-CN) = N#Cc1ccc(C[C@H](N)C(=O)O)cc1; tBuAla = CC(C)(C)C[C@H](N)C(=O)O; Cba = N[C@@H](CC1CCC1)C(=O)O
measured-parameter: Ki (nM)
Your answer should be a plain number; it is taken to be in nM.

binder	Ki / nM
ACY[Cba]PDYLC[dA]DEYCA-NH2 (linker 2-9-14 via TATA; N-terminus assumed; SMILES CC(C)C[C@@H]1NC(=O)[C@H](Cc2ccc(O)cc2)NC(=O)[C@H](CC(=O)O)NC(=O)[C@@H]2CCCN2C(=O)[C@H](CC2CCC2)NC(=O)[C@H](Cc2ccc(O)cc2)NC(=O)[C@@H](NC(=O)[C@H](C)N)CSCCC(=O)N2CN3CN(C2)C(=O)CCSC[C@H](NC1=O)C(=O)N[C@H](C)C(=O)N[C@@H](CC(=O)O)C(=O)N[C@@H](CCC(=O)O)C(=O)N[C@@H](Cc1ccc(O)cc1)C(=O)N[C@H](C(=O)N[C@@H](C)C(N)=O)CSCCC3=O, scaffold TATA) [BCY16132]	8
ACYLPD[Phe(4-CN)]LCGDEYCA-NH2 (linker 2-9-14 via TATA; N-terminus assumed; SMILES CC(C)C[C@@H]1NC(=O)[C@H](Cc2ccc(C#N)cc2)NC(=O)[C@H](CC(=O)O)NC(=O)[C@@H]2CCCN2C(=O)[C@H](CC(C)C)NC(=O)[C@H](Cc2ccc(O)cc2)NC(=O)[C@@H](NC(=O)[C@H](C)N)CSCCC(=O)N2CN3CN(C2)C(=O)CCSC[C@@H](C(=O)N[C@@H](C)C(N)=O)NC(=O)[C@H](Cc2ccc(O)cc2)NC(=O)[C@H](CCC(=O)O)NC(=O)[C@H](CC(=O)O)NC(=O)CNC(=O)[C@H](CSCCC3=O)NC1=O, scaffold TATA) [BCY16143]	464
[dA]CYLPDYLCGDEYC-NH2 (linker 2-9-14 via TATA; N-terminus assumed; SMILES CC(C)C[C@@H]1NC(=O)[C@H](Cc2ccc(O)cc2)NC(=O)[C@H](CC(=O)O)NC(=O)[C@@H]2CCCN2C(=O)[C@H](CC(C)C)NC(=O)[C@H](Cc2ccc(O)cc2)NC(=O)[C@@H](NC(=O)[C@@H](C)N)CSCCC(=O)N2CN3CN(C2)C(=O)CCSC[C@H](NC1=O)C(=O)NCC(=O)N[C@@H](CC(=O)O)C(=O)N[C@@H](CCC(=O)O)C(=O)N[C@@H](Cc1ccc(O)cc1)C(=O)N[C@H](C(N)=O)CSCCC3=O, scaffold TATA) [BCY16134]	77

Turning now to a further record.
Qu. What does the record list as Ki for ACYLPDW[tBuAla]CGDEYCA-NH2 (linker 2-9-14 via TATA; N-terminus assumed; SMILES CC(C)C[C@@H]1NC(=O)[C@H](Cc2ccc(O)cc2)NC(=O)[C@@H](NC(=O)[C@H](C)N)CSCCC(=O)N2CN3CN(C2)C(=O)CCSC[C@@H](C(=O)N[C@@H](C)C(N)=O)NC(=O)[C@H](Cc2ccc(O)cc2)NC(=O)[C@H](CCC(=O)O)NC(=O)[C@H](CC(=O)O)NC(=O)CNC(=O)[C@H](CSCCC3=O)NC(=O)[C@H](CC(C)(C)C)NC(=O)[C@H](Cc2c[nH]c3ccccc23)NC(=O)[C@H](CC(=O)O)NC(=O)[C@@H]2CCCN2C1=O, scaffold TATA) [BCY15648] ?
Ans. 1620
